FYI, the data here is from patent US11965039B2.

Target: Human C3 (Complement tech cat #A113c) (human, UniProt P01024 23-1663)
Sequence (P01024 23-1663 limits assumed): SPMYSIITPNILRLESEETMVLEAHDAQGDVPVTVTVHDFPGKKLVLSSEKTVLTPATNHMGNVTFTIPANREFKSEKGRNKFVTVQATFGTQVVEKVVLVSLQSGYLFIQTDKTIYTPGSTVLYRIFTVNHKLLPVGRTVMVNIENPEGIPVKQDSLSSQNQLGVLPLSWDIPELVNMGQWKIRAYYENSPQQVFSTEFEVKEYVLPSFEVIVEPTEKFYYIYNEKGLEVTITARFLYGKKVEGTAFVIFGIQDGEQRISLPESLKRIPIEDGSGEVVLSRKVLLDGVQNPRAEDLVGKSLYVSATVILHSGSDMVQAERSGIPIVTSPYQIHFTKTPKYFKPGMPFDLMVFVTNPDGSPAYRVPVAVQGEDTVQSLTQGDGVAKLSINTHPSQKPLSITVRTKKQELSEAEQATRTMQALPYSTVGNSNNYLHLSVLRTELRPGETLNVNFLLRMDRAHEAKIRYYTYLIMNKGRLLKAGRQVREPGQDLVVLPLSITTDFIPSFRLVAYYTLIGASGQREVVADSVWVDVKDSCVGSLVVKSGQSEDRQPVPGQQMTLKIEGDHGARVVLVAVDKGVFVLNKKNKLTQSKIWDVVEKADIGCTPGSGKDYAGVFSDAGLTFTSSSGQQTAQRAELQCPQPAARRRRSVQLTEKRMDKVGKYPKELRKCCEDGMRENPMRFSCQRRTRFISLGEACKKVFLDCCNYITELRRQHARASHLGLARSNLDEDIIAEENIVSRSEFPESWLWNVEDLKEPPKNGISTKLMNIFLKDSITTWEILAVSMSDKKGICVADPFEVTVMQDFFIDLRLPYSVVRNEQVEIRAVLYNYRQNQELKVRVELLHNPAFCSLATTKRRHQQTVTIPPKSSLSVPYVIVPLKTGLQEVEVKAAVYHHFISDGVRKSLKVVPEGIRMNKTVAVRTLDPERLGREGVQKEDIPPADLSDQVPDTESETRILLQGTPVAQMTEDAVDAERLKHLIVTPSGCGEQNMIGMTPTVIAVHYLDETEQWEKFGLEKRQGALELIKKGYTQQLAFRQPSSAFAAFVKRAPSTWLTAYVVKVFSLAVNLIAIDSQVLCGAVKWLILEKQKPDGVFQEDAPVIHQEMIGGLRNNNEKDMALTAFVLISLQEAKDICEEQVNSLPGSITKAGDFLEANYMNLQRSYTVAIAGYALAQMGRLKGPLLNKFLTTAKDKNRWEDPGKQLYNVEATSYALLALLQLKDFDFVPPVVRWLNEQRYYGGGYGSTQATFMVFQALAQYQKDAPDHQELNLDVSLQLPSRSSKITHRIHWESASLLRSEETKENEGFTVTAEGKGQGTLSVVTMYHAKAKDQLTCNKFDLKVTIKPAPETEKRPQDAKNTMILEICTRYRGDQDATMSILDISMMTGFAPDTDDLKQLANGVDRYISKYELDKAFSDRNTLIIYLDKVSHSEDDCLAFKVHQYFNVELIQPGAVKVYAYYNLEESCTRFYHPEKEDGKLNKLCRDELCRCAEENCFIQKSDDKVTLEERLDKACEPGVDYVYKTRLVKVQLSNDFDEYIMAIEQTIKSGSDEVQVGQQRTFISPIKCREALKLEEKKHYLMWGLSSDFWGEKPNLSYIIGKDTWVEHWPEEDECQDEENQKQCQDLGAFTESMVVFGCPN
Assay: cell-based or functional assay
Positions of bridges follow the written chain, without caps; N, C: chain ends. Non-standard residues stand in square brackets, D forms with d. Sar = CNCC(=O)O
propertyMeasured: inhibition of hemolysis IC50

Q: Can you look up the measured inhibition of hemolysis IC50 of Ac-[Sar]CIWQDWGEHRCT-NH2 (disulfide 2-12; SMILES CC[C@H](C)[C@@H]1NC(=O)[C@@H](NC(=O)CN(C)C(C)=O)CSSC[C@@H](C(=O)N[C@H](C(N)=O)[C@@H](C)O)NC(=O)[C@H](CCCNC(=N)N)NC(=O)[C@H](Cc2c[nH]cn2)NC(=O)[C@H](CCC(=O)O)NC(=O)CNC(=O)[C@H](Cc2c[nH]c3ccccc23)NC(=O)[C@H](CC(=O)O)NC(=O)[C@H](CCC(N)=O)NC(=O)[C@H](Cc2c[nH]c3ccccc23)NC1=O) [Compound 11] for me?
Ans: < 100 nM
